Quick list: EPO (ng/mL) oral gavage 10 mg/kg per entry.
Tested on: C57 Mice
Experiment: Estimating circulating EPO release in mice (plasma EPO by mouse EPO ELISA)
Format: in vivo
Conditions: oral gavage 10 mg/kg, plasma six hours after administration, EPO in control = 62 ng/mL
Readout: EPO (ng/mL) oral gavage 10 mg/kg

INSERT INTO measurements (structure, readout, unit_text, observed_measurement) VALUES
  ('C=CCOn1c(=O)c(C(=O)NCC(=O)O)c(O)c2ccccc21', 'EPO (ng/mL) oral gavage 10 mg/kg', 'ng/mL', 315),
  ('O=C(O)CNC(=O)c1c(O)c2ccccc2n(OCc2c(F)cccc2F)c1=O', 'EPO (ng/mL) oral gavage 10 mg/kg', 'ng/mL', 100),
  ('CCCOn1c(=O)c(C(=O)NCC(=O)O)c(O)c2ccccc21', 'EPO (ng/mL) oral gavage 10 mg/kg', 'ng/mL', 190),
  ('O=C(O)CNC(=O)c1c(O)c2ccccc2n(OCC2CC2)c1=O', 'EPO (ng/mL) oral gavage 10 mg/kg', 'ng/mL', 396);
